# System: Saccharomyces cerevisiae
# test: protein stability index of tFT-peptide fusion (C-terminal peptide) (PSI (0-1 scale)); higher = more stable (slower turnover)
# conditionContext: genetic background: wild type; temperature: 30 C
Classification field: Yes = protein stability index at or over 0.7; No = protein stability index under 0.7.

Sample answers from the record:
   sequencecontent  classname
0     PQIRTPIPGSFS        Yes
1     KKHKKGQKQKIN         No
2     SSPARPTRTSPA         No
3     SSPFCPLFQNPL        Yes
4     PPNLLPPLSPSL         No
5     FVRFLVGGLGRW         No

query: Threshold query (protein stability index >= 0.7) on `PCLLRYLVHPFP`
result: Yes

query: Consider next the sequence `LRLLRPVPPRVF` in the same way.
result: No

query: Consider next the sequence `VVCLCEYRLHIF` in the same way.
result: No

* * *

# Tested on: Saccharomyces cerevisiae
# test: protein stability index of tFT-peptide fusion in deletion strain of DAS1 (PSI (0-1 scale)); higher = more stable (slower turnover)
assayMetric: protein stability index
# print the numeric value only

Reference set, count: 2
>>> print(df.to_string())
   sequencecontent  assayvalue
0     FSMRWTFRYWVY       0.374
1     PDKRNHLRKLLN       0.574

query: // query protein stability index value for entry `CTSCGYKFRVNN`
result: 0.687

query: Consider next the sequence `PSLAASCWRVVG` in the same way.
result: 0.675

query: Consider next the sequence `VRGAVGGWRLVGQ` in the same way.
result: 0.667

query: Consider next the sequence `PDKRNHLNKLLN` in the same way.
result: 0.579

query: Consider next the sequence `CVSCGYKFRTNN` in the same way.
result: 0.705

query: Consider next the sequence `AVVYLSCVACIN` in the same way.
result: 0.038

query: Consider next the sequence `RLIQPLPAQFLN` in the same way.
result: 0.602

query: Consider next the sequence `YVVYLSCVACIN` in the same way.
result: 0.0254

query: Consider next the sequence `LVVYLWCVACIN` in the same way.
result: 0.0851

query: Consider next the sequence `LKILRQYMNHQN` in the same way.
result: 0.675

* * *

# Test system: Saccharomyces cerevisiae
# test: protein stability index of tFT-peptide fusion (C-terminal peptide) (PSI (0-1 scale)); higher = more stable (slower turnover)
# conditionContext: genetic background: wild type; temperature: 30 C
assayMetric: protein stability index
# print the numeric value only

query: Form field: protein stability index recorded for `LPPASSPPLLTP` with Saccharomyces cerevisiae (enter value)
result: 0.696

query: Consider next the sequence `RLSCFLVWFPFW` in the same way.
result: 0.592

query: Consider next the sequence `VCDFVLALRGLT` in the same way.
result: 0.649

* * *

# Test system: Saccharomyces cerevisiae
# test: protein stability index of tFT-peptide fusion (C-terminal peptide) (PSI (0-1 scale)); higher = more stable (slower turnover)
# conditionContext: genetic background: cdc34-1; temperature: 37 C
Entries and their protein stability index
# print the numeric value only

In [3]: df
Out[3]:
   sequencecontent  assayvalue
0     VSGEWSFLVRVQ       0.548
1     KKKNIYKVMKLE        0.65

Now consider a different sequence.
query: // query protein stability index value for entry `LSLVYFAALFSF`
result: 0.484

* * *

Entries and their protein stability index
# Test system: Saccharomyces cerevisiae
# test: protein stability index of tFT-peptide fusion (C-terminal peptide) (PSI (0-1 scale)); higher = more stable (slower turnover)
# conditionContext: genetic background: das1 deletion; temperature: 37 C
# print the numeric value only

   sequencecontent        experimentaltarget  assayvalue
0     LEGRFLACRGIC  Saccharomyces cerevisiae       0.728
1     ISFQFFVCLCAR  Saccharomyces cerevisiae       0.289
2     LFYVSFLFMLLF  Saccharomyces cerevisiae       0.459
3     GMGHLSNVCLKT  Saccharomyces cerevisiae       0.726
4     GILLLLISRVVF  Saccharomyces cerevisiae       0.469

Now consider a different sequence.
query: // query protein stability index value for entry `REAFVVLAVFFH`
result: 0.406

* * *

# Tested on: Saccharomyces cerevisiae
# test: protein stability index of tFT-peptide fusion (C-terminal peptide) (PSI (0-1 scale)); higher = more stable (slower turnover)
# conditionContext: genetic background: wild type; temperature: 30 C
assayMetric: protein stability index
# print the numeric value only

>>> df
   sequencecontent  assayvalue
0     AYSNVFLDPTPV        0.69
1     TTQGICWMAKGV       0.695

query: // query protein stability index value for entry `ARPAPPDNVHRN`
result: 0.626

query: Consider next the sequence `PPASPPLPPPRP` in the same way.
result: 0.689

query: Consider next the sequence `SSLIGHTLRPLV` in the same way.
result: 0.686

query: Consider next the sequence `VVAVRLPNVRHY` in the same way.
result: 0.655

query: Consider next the sequence `LPVCAFGWPVKS` in the same way.
result: 0.657

query: Consider next the sequence `APWSQLRSPPAL` in the same way.
result: 0.769

query: Consider next the sequence `GLVVWWLSGWLW` in the same way.
result: 0.373

query: Consider next the sequence `EVGGGVGGRRLM` in the same way.
result: 0.636

* * *

# Tested on: Saccharomyces cerevisiae
# test: protein stability index of tFT-peptide fusion in deletion strain of DAS1 (PSI (0-1 scale)); higher = more stable (slower turnover)
Entries and their protein stability index
# print the numeric value only

Reference set, count: 5
   sequencecontent        experimentaltarget              assaymetric  assayvalue
0     RLIQPLPVQHLN  Saccharomyces cerevisiae  protein stability index       0.564
1     PSLAASGWRVVG  Saccharomyces cerevisiae  protein stability index       0.679
2     FDKRNHLIKLLN  Saccharomyces cerevisiae  protein stability index       0.589
3     VRGHVGGWRLVG  Saccharomyces cerevisiae  protein stability index       0.672
4     VRGANGGWRLVG  Saccharomyces cerevisiae  protein stability index       0.677

query: // query protein stability index value for entry `CTSCGYHFRTNN`
result: 0.695

query: Consider next the sequence `CTSCGYKFRTNNI` in the same way.
result: 0.699

query: Consider next the sequence `ARWRVGTWRGAS` in the same way.
result: 0.687

* * *

# Test system: Saccharomyces cerevisiae
# test: protein stability index of tFT-peptide fusion (C-terminal peptide) (PSI (0-1 scale)); higher = more stable (slower turnover)
# conditionContext: genetic background: wild type; temperature: 30 C
Classification field: 1 = protein stability index at or over 0.7; -1 = protein stability index under 0.7.

   sequencecontent  classname
0     WTFPWICFLGFG         -1

query: Threshold query (protein stability index >= 0.7) on `PGHRVLKILHLR`
result: -1

query: Consider next the sequence `LRGLIDVKSSLK` in the same way.
result: 1

query: Consider next the sequence `FFRPWRLVGCLV` in the same way.
result: -1

query: Consider next the sequence `GGRGGRGQGWYR` in the same way.
result: -1

query: Consider next the sequence `PSDLPPPTPLLA` in the same way.
result: -1

query: Consider next the sequence `SPPPGLSVILLH` in the same way.
result: -1

query: Consider next the sequence `HRNPNLPFPPPL` in the same way.
result: 1

query: Consider next the sequence `AAGWRPEGSGAF` in the same way.
result: 1

query: Consider next the sequence `VSPTGRRGYGRS` in the same way.
result: -1

query: Consider next the sequence `APPPSPPALVLP` in the same way.
result: -1

query: Consider next the sequence `LPLPHALGSWSY` in the same way.
result: 1

* * *

# Test system: Saccharomyces cerevisiae
# test: protein stability index of tFT-peptide fusion (C-terminal peptide) (PSI (0-1 scale)); higher = more stable (slower turnover)
# conditionContext: genetic background: wild type; temperature: 30 C
Entries and their protein stability index
# print the numeric value only

Reference set, count: 5
>>> df
   sequencecontent        experimentaltarget              assaymetric  assayvalue
0     HLPPSSPPLAVI  Saccharomyces cerevisiae  protein stability index        0.68
1     VVGLSLLFSGGV  Saccharomyces cerevisiae  protein stability index       0.694
2     SVGGGGGAVGGG  Saccharomyces cerevisiae  protein stability index        0.68
3     FFPPAPLTSLLP  Saccharomyces cerevisiae  protein stability index       0.697
4     TGREGARVGIGR  Saccharomyces cerevisiae  protein stability index       0.687

Now consider a different sequence.
query: // query protein stability index value for entry `YLVSRRSGCDLE`
result: 0.683
